Field: Ki. System: Serine protease 1 (Homo sapiens). Provenance: assorted publications.
QUANTITY_MEASURED: Ki (nM)

Examples with answers:
>>> value_reported("CC(=N)N1CCC(Oc2ccc3c(nc(C(C)C)n3Cc3ccc4ccc(C(=N)N)cc4c3)c2[N+](=O)[O-])CC1")
3
>>> value_reported("N=C(N)c1ccc2cccc(Nc3ncccn3)c2c1")
1700
>>> value_reported("COc1ccc2cc(S(=O)(=O)NC(Cc3ccc(CN)cc3)C(=O)N(C)C3CCCC3)ccc2c1 (configuration not stated)")
14200

(a) CN(C(=O)Cc1c[nH]c2ccc(C(=N)N)cc12)c1ccc(-c2ccccc2S(N)(=O)=O)cc1
(b) Cc1nc(N)ccc1CNC(=O)Cn1c(C)cc(S(=O)(=O)C2CCCCC2)c(N)c1=O
Input: Compare Ki: is it lower for a or for b ? Refer to your chosen entry by its label in the reply.
Output: b
(b: 260 nM, a: 600 nM)

----------
Field: pKi. System: Serine protease 1 (Homo sapiens, UniProt P07477). Provenance: assorted publications.
Sequence (P07477 whole entry): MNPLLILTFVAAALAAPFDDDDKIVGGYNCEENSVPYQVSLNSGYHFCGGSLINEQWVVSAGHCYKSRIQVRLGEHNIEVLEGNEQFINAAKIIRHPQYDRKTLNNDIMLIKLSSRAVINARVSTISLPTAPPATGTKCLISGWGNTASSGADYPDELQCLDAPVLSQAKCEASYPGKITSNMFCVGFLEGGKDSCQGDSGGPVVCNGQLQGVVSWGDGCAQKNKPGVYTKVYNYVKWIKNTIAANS
pKi: −log10 of the molar value.
QUANTITY_MEASURED: pKi

Examples with answers:
>>> value_reported("COC(=O)CC(CCc1ccc(NS(C)(=O)=O)cc1)c1cccc(C(=N)N)c1 (centres undefined)")
6.96
>>> value_reported("N=C(N)c1cccc(N2CCCCN(C3CCN(S(=O)(=O)c4ccccc4)CC3)C2=O)c1")
7.22
>>> value_reported("N=C(N)c1cccc(C(=O)N[C@@H](C(=O)N2CCN(c3ccccc3)CC2)c2ccccc2)c1")
6.47
>>> value_reported("CC(C)Oc1cccc(NC(=O)c2cc(C3CCOC3)c3cc(C(=N)N)ccc3c2)c1 (centres undefined)")
7.92

(I) O=C(NCC1CCc2ncncc2C1)[C@@H]1CCCN1C(=O)[C@@H](CC1CCCCC1)NS(=O)(=O)Cc1ccccc1 (some centres undefined)
(II) Cn1cc2c(n1)CCC(NC(=O)[C@@H]1CCCN1C(=O)[C@@H](CC1CCCCC1)NS(=O)(=O)Cc1ccccc1)C2 (some centres undefined)
Input: Compare pKi: is it lower for I or for II ? Refer to your chosen entry by its label in the reply.
Output: II

----------
Field: Ki. System: Serine protease 1 (Homo sapiens, UniProt P07477). Provenance: assorted publications.
QUANTITY_MEASURED: Ki (nM)

(P) N=C(N)c1ccc(O)c(/C=C/CNC(=O)c2ccc(-c3cccc(S(N)(=O)=O)c3)cc2)c1
(Q) COc1ccc2cc(S(=O)(=O)NN(Cc3ccc(C(=N)N)cc3)C(=O)N3CCC(C)CC3)ccc2c1
(R) CC(C)(C)OC(=O)/C=C/c1nc(Cc2ccccc2)n(CC(=O)N[C@@H](CCCCN)B2O[C@@H]3C[C@@H]4C[C@@H](C4(C)C)[C@]3(C)O2)n1
Input: Reorder the records above by Ki so that values decrease. Your task in answering is to list the labels in the requested order.
Output: Q, P, R
(Q: 18000 nM, P: 240 nM, R: 36 nM)

----------
pKi: −log10 of the molar value.
Field: pKi. System: Serine protease 1 (Homo sapiens). Provenance: assorted publications.
QUANTITY_MEASURED: pKi

>>> value_reported("N=C(N)c1cccc(C(=O)N[C@@H](C(=O)N2CCC(Cc3ccccc3)CC2)c2ccccc2)c1")
6.19
>>> value_reported("COC(=O)[C@H](Cc1cccc(C(=N)N)c1)[C@@H](CC(C)C)NC(=O)c1ccc(-c2cccc(CN)c2)cc1")
7.42
>>> value_reported("CC(=O)N[C@H](CO)C(=O)NCC(=O)NCc1ccc(C(=N)N)cc1")
4.85

(1) CC1(C(=O)Nc2ccc(-c3ccccc3S(N)(=O)=O)cn2)CC(c2cccc(C(=N)N)c2)=NO1 (stereo not drawn)
(2) CCN(CC)S(=O)(=O)c1ccccc1-c1ccc(C(=O)N[C@@H](CCCNC(=N)N)B2O[C@@H]3CC4CC(C4(C)C)[C@]3(C)O2)c(C)c1 (stereo partly drawn)
Input: pKi comparison. Which is larger, 1 or 2 ? Refer to your chosen entry by its label in the reply.
Output: 2
(2: 9.21, 1: 7.39)

----------
Field: Ki. System: UniProtKB P07477. Provenance: assorted publications.
QUANTITY_MEASURED: Ki (nM)

Examples with answers:
>>> value_reported("N=C(N)Nc1ccc(CNC(=O)N2CCN(C(=O)O[C@H]3CCC[C@@H](OC(=O)N4CCN(C(=O)CCc5ccc(N)nc5)CC4)CCC3)CC2)cc1")
156000
>>> value_reported("O=C1COc2ccc(Cl)cc2CNC(=O)[C@@H]2CCCN2C(=O)[C@@H](C2CCCCC2)NC(=O)CCCN1")
5000
>>> value_reported("Nc1cc[n+](Cc2ccc(OC(c3ccccc3)c3ccccc3)cc2)cc1")
517000
>>> value_reported("N=C(N)c1cccc(C(=O)NC(C(=O)NCC2CCC(CN)CC2)c2cccc(Cl)c2)c1 (stereo in doubt; 11)")
5100
>>> value_reported("COC(=O)[C@H](Cc1cccc(C(=N)N)c1)[C@@H](C)NC(=O)c1ccc(-c2c[nH]cn2)cc1")
170
>>> value_reported("CN=C(N)NCCC[C@H](NC(=O)CN(C)C(=O)CCc1ccccc1)B(O)O")
18

(P) COc1ccc(C(Nc2ccc(C(=N)N)cc2)C(=O)NCc2ccccc2)cc1OC (stereo not drawn)
(Q) N=C(N)c1ccc(CN(NS(=O)(=O)c2ccc(-c3ccccc3)cc2)C(=O)N2CCCCCC2)cc1
(R) CCNS(=O)(=O)c1ccccc1-c1ccc(NC(=O)Cc2c[nH]c3ccc(C(=N)N)cc23)cc1
(S) COC(=O)CC1(C(=O)Nc2ccc(-c3ccccc3S(N)(=O)=O)cn2)CC(c2cccc(C(=N)N)c2)=NO1 (stereo not drawn)
(T) CCc1nc2c(N(CC(=O)O)CC(=O)O)c(OC3CCN(C(C)=N)CC3)ccc2n1Cc1ccc2ccc(C(=N)N)cc2c1
Input: Could you please order the items by Ki, going from the lowest number to the highest? Your task in answering is to list the labels in the requested order.
Output: T, S, R, P, Q
(T: 15 nM, S: 52 nM, R: 160 nM, P: 1700 nM, Q: 23000 nM)

(1) CC(C)(C)c1ccc(C(=O)NC/C=C/c2cc(C(=N)N)ccc2O)cc1
(2) Cc1nc(N)ccc1CNC(=O)Cn1cccc(NS(=O)(=O)Cc2ccccc2)c1=O
Input: Compare Ki: is it lower for 1 or for 2 ? Refer to your chosen entry by its label in the reply.
Output: 1

(I) COCC1(C(=O)Nc2ccc(-c3ccccc3S(N)(=O)=O)cc2)CC(c2cccc(C(=N)N)c2)=NO1 (stereo not drawn)
(II) N=C(N)c1ccc2cc(C(=O)Nc3ccccc3)cc(-c3ccoc3)c2c1
(III) CC(=O)[C@@H]1CN(Cc2ccc(-c3ccccc3S(N)(=O)=O)cc2)C[C@H]1c1cccc(C(=N)N)c1
(IV) NCCCC[C@H](NC(=O)CN(C(=O)CCc1ccccc1)C1CC1)B(O)O
Input: Could you please order the items by Ki, going from the lowest number to the highest? Your task in answering is to list the labels in the requested order.
Output: IV, II, I, III
(IV: 1.1 nM, II: 45 nM, I: 70 nM, III: 200 nM)

(P) Cc1nc(N)ccc1CNC(=O)Cn1c(C)cc2c(c1=O)NC(=O)[C@H](CC(C)C)C2
(Q) COC(=O)[C@H](Cc1cccc(C(=N)N)c1)[C@@H](C)NC(=O)c1ccc(-c2cccnc2)cc1
(R) Cc1ccc(NS(=O)(=O)Cc2ccccc2)c(=O)n1CC(=O)NCc1ccccc1CCN
Input: Could you please order the items by Ki, going from the lowest number to the highest? Your task in answering is to list the labels in the requested order.
Output: Q, P, R
(Q: 368 nM, P: 580 nM, R: 437000 nM)

(I) N=C(N)Nc1ccc(CNC(=O)N2CCN(C(=O)OC[C@H]3CC[C@H](COC(=O)N4CCN(C(=O)NCc5ccc(NC(=N)N)cc5)CC4)CC3)CC2)cc1
(II) N=C(N)Nc1ccc(CNC(=O)N2CCN(C(=O)O[C@H]3CCC[C@@H](OC(=O)N4CCN(C(=O)NCCCCN)CC4)CCC3)CC2)cc1
Input: Compare Ki: is it lower for I or for II ? Refer to your chosen entry by its label in the reply.
Output: I

(1) N=C(N)Nc1ccc(CNC(=O)N2CCN(C(=O)OC[C@H]3C4C=CC(CC4)[C@@H]3COC(=O)N3CCN(C(=O)NCc4ccc(NC(=N)N)cc4)CC3)CC2)cc1
(2) COC(=O)Cc1cn(CC(=O)N2CCC(Cc3ccccc3)CC2)c2ccc(C(=N)N)cc12
Input: Ki comparison. Which is larger, 1 or 2 ? Refer to your chosen entry by its label in the reply.
Output: 1
(1: 15000 nM, 2: 140 nM)

(1) Cc1nc(N)ccc1CNC(=O)Cn1c(C)cc(S(=O)(=O)Cc2ccccc2)c(N)c1=O
(2) N=C(N)Nc1ccc(CNC(=O)N2CCN(C(=O)O[C@H]3C[C@H]4C[C@@H](OC(=O)N5CCN(C(=O)NCc6ccc(NC(=N)N)cc6)CC5)C[C@H]4C3)CC2)cc1
Input: Compare Ki: is it lower for 1 or for 2 ? Refer to your chosen entry by its label in the reply.
Output: 1
(1: 1600 nM, 2: 4000 nM)
